# Tested on: normal lung cells CCD19
# ASSAY NOTES: MTT cell viability assay, normal lung cells CCD19
# Type: cell-based
# CONDITION CONTEXT: 72 h treatment
ASSAY METRIC: IC50
In your response, the unit should come after the numeric value.

Lookup result for Cc1sc2nc3c4ccccc4c(NCCCN(C)C)nn3c(=O)c2c1C [Formula (V)] ; measured IC50: 16.8 µM
